Property: relative binding ratio (IC50 of standard peptide / IC50 of test peptide); scope: individual binders
target_system: T1, HLA-A*0301 (human)
T1 construct: also called HLA-A3
assay_explanation: inhibition of 125I-labelled probe peptide binding to purified HLA-A*0301, gel filtration; ratio to standard peptide 941.12 [..] (11 nM)
quantity_measured: relative binding ratio (IC50 of standard peptide / IC50 of test peptide)

binder	recorded_measurement
LGSGAFGTVY (Synthetic peptide; also called Her2/neu.726 (10-mer)) [HER2/neu peptide, position 726, 10 amino acids]	0.0003
LVHRDLAAR (Synthetic peptide; also called Her2/neu.841 (9-mer)) [HER2/neu peptide, position 841, 9 amino acids]	0.004
NVKIPVAIK (Synthetic peptide; also called Her2/neu.745 (9-mer)) [HER2/neu peptide, position 745, 9 amino acids]	0.0058
LTLIDTNRSR (Synthetic peptide; also called Her2/neu.181 (10-mer)) [HER2/neu peptide, position 181, 10 amino acids]	0.0002
